FYI, the data here is from the supplement of paper PMC10567573.

B1: CD207 (parent)
chain: MTVEKEAPDAHFTVDKQNISLWPR

# Variants of: B1
# TEST_METHOD_NOTES: protein stability index of a GFP-peptide fusion (GPS, HEK-293T) (PSI 1-6); higher = more stable;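 further: lentivirally expressed fusions sorted by FACS into six bins by GFP to DsRed ratio, PSI derived from sequencing read proportions per bin multiplied by bin number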
# DETAILS: c terminus: a fixed tail appended
Task for the reader: assign each of the following variants its reported protein stability index.
Respond with the number and no other words.

Respond only with protein stability index recorded for K16V
2.93

Respond only with protein stability index recorded for N18V
2.29

For the variant V3W , give its reported protein stability index.
2.86

Report protein stability index for A7I
2.67

Answer with reported protein stability index of W22E
5.08

Please supply the value of reported protein stability index for the item K5L
1.86

Answer with the recorded protein stability index of V14I only.
3.45

Look up and report measured protein stability index for this entry: V14Q
3.85

For the variant L21T , give its reported protein stability index.
3.01

Given the variant V3H , write its reported protein stability index.
3.54

Consider the variant A7N . State its measured protein stability index.
4.01

Complete the entry with protein stability index for S20H
3.2

Query protein stability index for K5S
3.04

Tell us which protein stability index value is on record for P23K
3.69

For the variant F12L , give its reported protein stability index.
3.72

For the variant T2F , report protein stability index.
2.71

# return recorded protein stability index for entry S20L
2.48

Look up and state reported protein stability index for N18F
3

Answer with the recorded protein stability index of F12Y only.
3.16

Assign protein stability index to the following record: D15R
3.06

For the variant T13H , give its reported protein stability index.
3.03

Quick one: give measured protein stability index for R24N
4.12
